Biological target: Muscle, skeletal receptor tyrosine-protein kinase (Homo sapiens) (UniProt O15146);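 further: values are mean inhibition of MuSK from the GSK PKIS kinase screening panel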
Sequence (O15146 whole entry): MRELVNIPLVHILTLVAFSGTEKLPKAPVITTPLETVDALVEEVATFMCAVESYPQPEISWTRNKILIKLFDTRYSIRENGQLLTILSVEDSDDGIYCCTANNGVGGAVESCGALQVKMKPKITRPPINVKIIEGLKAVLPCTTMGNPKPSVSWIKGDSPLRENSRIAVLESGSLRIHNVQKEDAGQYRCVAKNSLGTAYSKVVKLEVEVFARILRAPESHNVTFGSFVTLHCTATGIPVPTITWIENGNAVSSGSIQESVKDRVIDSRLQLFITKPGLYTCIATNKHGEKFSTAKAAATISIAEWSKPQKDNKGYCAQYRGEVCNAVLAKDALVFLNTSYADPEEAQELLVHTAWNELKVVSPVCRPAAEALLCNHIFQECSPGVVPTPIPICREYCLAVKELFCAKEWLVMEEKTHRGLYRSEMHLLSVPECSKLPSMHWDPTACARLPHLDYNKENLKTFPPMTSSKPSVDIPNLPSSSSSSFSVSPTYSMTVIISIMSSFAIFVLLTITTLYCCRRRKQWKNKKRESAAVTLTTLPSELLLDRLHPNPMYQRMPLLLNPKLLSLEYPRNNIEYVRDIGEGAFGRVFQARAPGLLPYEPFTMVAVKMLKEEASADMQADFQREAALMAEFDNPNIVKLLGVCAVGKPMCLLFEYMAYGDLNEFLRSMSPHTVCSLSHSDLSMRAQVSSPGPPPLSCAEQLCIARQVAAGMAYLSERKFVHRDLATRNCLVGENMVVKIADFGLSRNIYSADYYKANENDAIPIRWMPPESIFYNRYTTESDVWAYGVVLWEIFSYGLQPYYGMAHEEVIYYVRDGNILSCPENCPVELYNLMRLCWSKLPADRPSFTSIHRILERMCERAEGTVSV
Conditions: at 0.1 µM
readout-label: inhibition (%)

[[record]]
line_notation = "COc1ccc(-c2nn3ncccc3c2-c2ccnc(Nc3cccc(C(F)(F)F)c3)n2)cc1"
readout_label = "inhibition"
recorded_value = 2.37

[[record]]
line_notation = "N#Cc1cccc(Nc2nccc(-c3cnn4ncccc34)n2)c1"
readout_label = "inhibition"
recorded_value = 5.72

[[record]]
line_notation = "CN(C)C(=O)O[C@H]1CN[C@H](C#Cc2cc3ncnc(Nc4ccc(OCc5cccc(F)c5)c(Cl)c4)c3s2)C1"
readout_label = "inhibition"
recorded_value = 2.98

[[record]]
line_notation = "Nc1nccc(-c2c(-c3ccc(F)cc3)nn3cc(C(F)(F)F)ccc23)n1"
readout_label = "inhibition"
recorded_value = -1.22

[[record]]
line_notation = "Cc1ccc(Nc2ccnc(Nc3cccc(C(N)=O)c3)n2)cc1O"
readout_label = "inhibition"
recorded_value = 5.89


* * *

Reported inhibition values follow for various molecules
Biological target: Serine/threonine-protein kinase Sgk3 (Homo sapiens);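 further: reported percentages are averaged inhibition values against SGK3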
Sequence (whole entry): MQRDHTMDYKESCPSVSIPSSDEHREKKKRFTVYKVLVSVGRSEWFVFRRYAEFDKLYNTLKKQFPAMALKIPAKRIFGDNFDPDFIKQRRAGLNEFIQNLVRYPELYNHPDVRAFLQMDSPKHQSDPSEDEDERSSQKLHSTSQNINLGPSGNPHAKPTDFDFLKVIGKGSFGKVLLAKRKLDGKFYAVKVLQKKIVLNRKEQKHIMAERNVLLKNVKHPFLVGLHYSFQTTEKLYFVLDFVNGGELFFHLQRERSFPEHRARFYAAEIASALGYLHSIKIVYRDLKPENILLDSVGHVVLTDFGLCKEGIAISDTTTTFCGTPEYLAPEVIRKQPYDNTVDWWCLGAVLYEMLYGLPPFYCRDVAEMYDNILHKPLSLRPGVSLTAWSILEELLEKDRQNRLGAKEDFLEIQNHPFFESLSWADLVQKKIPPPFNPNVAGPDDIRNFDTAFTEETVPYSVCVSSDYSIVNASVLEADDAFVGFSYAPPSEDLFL
Conditions: at 0.1 µM
readout-label: inhibition (%)

[[record]]
molecule = "CN(C)c1cc2c(Nc3ccc4c(cnn4Cc4ccccc4)c3)ncnc2cn1"
system = "Serine/threonine-protein kinase Sgk3 (Homo sapiens)"
recorded_value = 1.86

[[record]]
molecule = "COC(=O)Nc1nc2cc(Oc3ccc(NC(=O)Nc4cccc(Br)c4)cc3)ccc2[nH]1"
system = "Serine/threonine-protein kinase Sgk3 (Homo sapiens)"
recorded_value = 2.77

[[record]]
molecule = "CCCN1CCCC(c2ccc(Nc3nc(Nc4cc(F)ccc4C(N)=O)c4cc[nH]c4n3)c(OC)c2)C1 (stereo unspecified)"
system = "Serine/threonine-protein kinase Sgk3 (Homo sapiens)"
recorded_value = 4.46

[[record]]
molecule = "COc1cccc(-n2ncc3c(N/N=C/c4ccc(S(C)(=O)=O)cc4)ncnc32)c1"
system = "Serine/threonine-protein kinase Sgk3 (Homo sapiens)"
recorded_value = -0.55

[[record]]
molecule = "CCS(=O)(=O)c1ccc(OC)c(Nc2ncc(-c3cccc(OC)c3)o2)c1"
system = "Serine/threonine-protein kinase Sgk3 (Homo sapiens)"
recorded_value = 3.65

[[record]]
molecule = "COc1cc2ncn(-c3cc(OCc4ccccc4S(C)(=O)=O)c(C#N)s3)c2cc1OC"
system = "Serine/threonine-protein kinase Sgk3 (Homo sapiens)"
recorded_value = 4.43

[[record]]
molecule = "NS(=O)(=O)c1ccc(Nc2cc(-c3cccc(O)c3)n[nH]2)cc1"
system = "Serine/threonine-protein kinase Sgk3 (Homo sapiens)"
recorded_value = 6.64

[[record]]
molecule = "COc1ccc2ncnc(Nc3ccc(OCc4ccccc4)cc3)c2c1"
system = "Serine/threonine-protein kinase Sgk3 (Homo sapiens)"
recorded_value = 2.62

[[record]]
molecule = "N#Cc1cccc(Nc2nccc(-c3cnn4ncccc34)n2)c1"
system = "Serine/threonine-protein kinase Sgk3 (Homo sapiens)"
recorded_value = 5.14

[[record]]
molecule = "NS(=O)(=O)c1ccc(-c2cc3ccncc3cc2OCc2ccccc2)cc1"
system = "Serine/threonine-protein kinase Sgk3 (Homo sapiens)"
recorded_value = 0.75

[[record]]
molecule = "Cc1nc(-c2ccccc2)n2nc(NCCCN3CCOCC3)ncc12"
system = "Serine/threonine-protein kinase Sgk3 (Homo sapiens)"
recorded_value = 0.22

[[record]]
molecule = "Cc1cc(-c2ccccn2)cc(C)c1/C=C/c1cncc(-c2nn[nH]n2)c1"
system = "Serine/threonine-protein kinase Sgk3 (Homo sapiens)"
recorded_value = 4.48

[[record]]
molecule = "[O-][S+]1CCN(Cc2ccc(-c3ccc4ncnc(Nc5ccc(OCc6ccccc6)c(Cl)c5)c4c3)o2)CC1"
system = "Serine/threonine-protein kinase Sgk3 (Homo sapiens)"
recorded_value = 0.45

[[record]]
molecule = "FC(F)(F)c1ccc(-c2nn3ncccc3c2-c2ccnc(Nc3ccc4c(c3)OCCO4)n2)cc1"
system = "Serine/threonine-protein kinase Sgk3 (Homo sapiens)"
recorded_value = 7.48

[[record]]
molecule = "ON=C1CCc2cc(-c3nc(C4CCNCC4)[nH]c3-c3ccncc3)ccc21"
system = "Serine/threonine-protein kinase Sgk3 (Homo sapiens)"
recorded_value = -1.46

[[record]]
molecule = "CCOc1nccc2c1nc(-c1nonc1N)n2CC"
system = "Serine/threonine-protein kinase Sgk3 (Homo sapiens)"
recorded_value = 6.9

[[record]]
molecule = "Cc1ccc2c(-c3ccnc(Nc4ccc5c(c4)OCCO5)n3)c(-c3ccc(C(F)(F)F)cc3)nn2n1"
system = "Serine/threonine-protein kinase Sgk3 (Homo sapiens)"
recorded_value = 0.16

[[record]]
molecule = "CN1CCN(C(=O)c2ccc(NC(=O)Nc3ccc(N(C)c4ccnc(Nc5ccc(CS(C)(=O)=O)cc5)n4)cc3)cc2)CC1"
system = "Serine/threonine-protein kinase Sgk3 (Homo sapiens)"
recorded_value = 2.75

[[record]]
molecule = "Cc1ccc(Nc2ccnc(Nc3cccc(C(N)=O)c3)n2)cc1O"
system = "Serine/threonine-protein kinase Sgk3 (Homo sapiens)"
recorded_value = 1.32

[[record]]
molecule = "N#Cc1c(NC(=O)c2ccccc2F)sc2c1CCCC2"
system = "Serine/threonine-protein kinase Sgk3 (Homo sapiens)"
recorded_value = -2.68

[[record]]
molecule = "O=S(=O)(CCOCc1ccc(-c2ccc3ncnc(Nc4ccc(OCc5cccc(F)c5)c(Cl)c4)c3c2)o1)c1ccccc1"
system = "Serine/threonine-protein kinase Sgk3 (Homo sapiens)"
recorded_value = 3.38

